From: paper PMC9226124

Assignment: determine reported FP signal for the given molecules.
- tested target: FITC-labeled CFTRpS753pS768 peptide (no 14-3-3) (Homo sapiens)
- Construct: made in house; host or cells: synthetic peptide
- procedure text: Dose-response FP control assay in the absence of 14-3-3
- Type: binding
- test settings: No 14-3-3; compound 0.0005 M
One number for each entry.

# batch size: 4; output FP signal per entry
1. NCCCCC1NCc2ccccc2Sc2ccccc2CNC(=O)C(Cc2cccc(Cl)c2)NC(=O)C(Cc2ccc(O)cc2)NC1=O (stereo not drawn) [CY007288]
2. NCCCC1NCc2ccccc2Sc2ccccc2CNC(=O)C(Cc2c[nH]c3ccccc23)NC(=O)C(Cc2ccccc2)NC1=O (stereo not drawn) [CY007345]
3. C=CC(C)(C)OC[C@H]1O[C@H](O[C@@H]2C3=C([C@H](C)COC(C)=O)C[C@H](O)[C@]3(C)/C=C3/[C@@H](COC)CC[C@H]3[C@@H](C)[C@H]2O)[C@H](O)[C@@H](OC(C)=O)[C@@H]1O [FC-A, fusicoccin A, reference compound]
4. N=C(N)NCCCC1NC(=O)C(CCCCN)NCc2ccccc2Sc2ccccc2CNC(=O)C(Cc2ccc(O)cc2)NC1=O (stereo not drawn) [CY001951]

Reply:
[194, 238, 116, 201]

# batch size: 2; output FP signal per entry
1. N=C(N)NCCCC1NC(=O)C(CCC(N)=O)NC(=O)C(CCCNC(=N)N)NC(=O)C2CCCN2Cc2cccc(c2)-c2ccccc2CNC1=O (stereo not drawn) [CY007458]
2. N=C(N)NCCCC1NCc2ccccc2Sc2ccccc2CNC(=O)C(Cc2ccc(O)cc2)NC(=O)C(CCCN)NC1=O (stereo not drawn) [CY007424]

Reply:
[221, 257]

----------
- tested target: FITC-labeled CFTRpS753pS768 peptide (no 14-3-3) (Homo sapiens)
- Construct: made in house; host or cells: synthetic peptide
- procedure text: Dose-response FP control assay in the absence of 14-3-3
- Format: binding
- test settings: No 14-3-3; compound 7.8125e-6 M
value type: FP signal
Answers are plain numbers.

- NCCCCC1NCc2ccccc2Sc2ccccc2CNC(=O)C(Cc2cccc(Cl)c2)NC(=O)C(Cc2ccc(O)cc2)NC1=O (stereo not drawn) [CY007288]: 9
- CC1NC(=O)C(CCCNC(=N)N)NC(=O)C2CCCN2Cc2cccc(c2)-c2ccccc2CNC(=O)C(CCCNC(=N)N)NC1=O (stereo not drawn) [CY007476]: 10
- N=C(N)NCCCC1NC(=O)C(CCC(N)=O)NC(=O)C(CCCNC(=N)N)NC(=O)C2CCCN2Cc2cccc(c2)-c2ccccc2CNC1=O (stereo not drawn) [CY007455]: 8
- N=C(N)NCCCC1NC(=O)C(CCC(N)=O)NC(=O)C(CCCNC(=N)N)NC(=O)C2CCCN2Cc2cccc(c2)-c2ccccc2CNC1=O (stereo not drawn) [CY007458]: 11
- N=C(N)NCCCC1NCc2ccccc2Sc2ccccc2CNC(=O)C(Cc2ccc(O)cc2)NC(=O)C(CCCN)NC1=O (stereo not drawn) [CY007424]: 27

# batch size: 3; output FP signal per entry
1. N=C(N)NCCCC1NC(=O)C(CCCCN)NCc2ccccc2Sc2ccccc2CNC(=O)C(Cc2ccc(O)cc2)NC1=O (stereo not drawn) [CY001951]
2. NCCCC1NCc2ccccc2Sc2ccccc2CNC(=O)C(Cc2c[nH]c3ccccc23)NC(=O)C(Cc2ccccc2)NC1=O (stereo not drawn) [CY007345]
3. CN1CC(=O)NC(CCCNC(=N)N)C(=O)NC(CCC(N)=O)C(=O)NC(CCCNC(=N)N)C(=O)NCc2ccccc2-c2cccc(c2)C1 (stereo not drawn) [CY007491]

Reply:
1. 7
2. 28
3. 7

Task item: Lab request: please report FP signal under test system FITC-labeled CFTRpS753pS768 peptide (no 14-3-3) (Homo sapiens) for C=CC(C)(C)OC[C@H]1O[C@H](O[C@@H]2C3=C([C@H](C)COC(C)=O)C[C@H](O)[C@]3(C)/C=C3/[C@@H](COC)CC[C@H]3[C@@H](C)[C@H]2O)[C@H](O)[C@@H](OC(C)=O)[C@@H]1O [FC-A, fusicoccin A, reference compound]
Reply: 23

----------
- tested target: FITC-labeled CFTRpS753pS768 peptide (no 14-3-3) (Homo sapiens, UniProt P13569)
- Construct: made in house; host or cells: synthetic peptide
- Sequence (P13569 747-774 limits assumed): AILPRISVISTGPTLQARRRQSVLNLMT
- procedure text: Dose-response FP control assay in the absence of 14-3-3
- Format: binding
- test settings: No 14-3-3; compound 0.000125 M
Assignment: determine reported FP signal for the given molecules.

- NCCCCC1NCc2ccccc2Sc2ccccc2CNC(=O)C(Cc2cccc(Cl)c2)NC(=O)C(Cc2ccc(O)cc2)NC1=O (stereo not shown) [CY007288]: 97

# batch size: 3; output FP signal per entry
1. NCCCC1NCc2ccccc2Sc2ccccc2CNC(=O)C(Cc2c[nH]c3ccccc23)NC(=O)C(Cc2ccccc2)NC1=O (stereo not shown) [CY007345]
2. N=C(N)NCCCC1NC(=O)C(CCC(N)=O)NC(=O)C(CCCNC(=N)N)NC(=O)C2CCCN2Cc2cccc(c2)-c2ccccc2CNC1=O (stereo not shown) [CY007455]
3. CC1NC(=O)C(CCCNC(=N)N)NC(=O)C2CCCN2Cc2cccc(c2)-c2ccccc2CNC(=O)C(CCCNC(=N)N)NC1=O (stereo not shown) [CY007476]

Reply:
1: 191; 2: 107; 3: 124

----------
Assignment: determine reported FP signal for the given molecules.
- tested target: FITC-labeled CFTRpS753pS768 peptide (no 14-3-3) (Homo sapiens)
- Construct: made in house; host or cells: synthetic peptide
- procedure text: Dose-response FP control assay in the absence of 14-3-3
- Format: binding
- test settings: No 14-3-3; compound 1.5625e-5 M
Answers are plain numbers.

A selection of reference data follows.
- N=C(N)NCCCC1NCc2ccccc2Sc2ccccc2CNC(=O)C(Cc2ccc(O)cc2)NC(=O)C(CCCN)NC1=O (stereo not drawn): 52
- C=CC(C)(C)OC[C@H]1O[C@H](O[C@@H]2C3=C([C@H](C)COC(C)=O)C[C@H](O)[C@]3(C)/C=C3/[C@@H](COC)CC[C@H]3[C@@H](C)[C@H]2O)[C@H](O)[C@@H](OC(C)=O)[C@@H]1O [FC-A, fusicoccin A, reference compound]: 37
- NCCCCC1NCc2ccccc2Sc2ccccc2CNC(=O)C(Cc2cccc(Cl)c2)NC(=O)C(Cc2ccc(O)cc2)NC1=O (stereo not drawn): 16
- CN1CC(=O)NC(CCCNC(=N)N)C(=O)NC(CCC(N)=O)C(=O)NC(CCCNC(=N)N)C(=O)NCc2ccccc2-c2cccc(c2)C1 (stereo not drawn): 9
- N=C(N)NCCCC1NC(=O)C(CCCCN)NCc2ccccc2Sc2ccccc2CNC(=O)C(Cc2ccc(O)cc2)NC1=O (stereo not drawn): 9

From here, focus on the item given below.
Task item: Dear colleague, I am looking for the recorded FP signal of the following molecule: N=C(N)NCCCC1NC(=O)C(CCC(N)=O)NC(=O)C(CCCNC(=N)N)NC(=O)C2CCCN2Cc2cccc(c2)-c2ccccc2CNC1=O (stereo not drawn) [CY007455]
Reply: 15

----------
- tested target: FITC-labeled CFTRpS753pS768 peptide (no 14-3-3) (Homo sapiens, UniProt P13569)
- Construct: made in house; host or cells: synthetic peptide
- procedure text: Dose-response FP control assay in the absence of 14-3-3
- Assay type: binding
- test settings: No 14-3-3; compound 7.6294e-9 M
Assignment: determine reported FP signal for the given compounds.
Answers are plain numbers.

* CN1CC(=O)NC(CCCNC(=N)N)C(=O)NC(CCC(N)=O)C(=O)NC(CCCNC(=N)N)C(=O)NCc2ccccc2-c2cccc(c2)C1 (centres unmarked) [CY007491] | 4
* N=C(N)NCCCC1NC(=O)C(CCC(N)=O)NC(=O)C(CCCNC(=N)N)NC(=O)C2CCCN2Cc2cccc(c2)-c2ccccc2CNC1=O (centres unmarked) [CY007458] | 7
* NCCCC1NCc2ccccc2Sc2ccccc2CNC(=O)C(Cc2c[nH]c3ccccc23)NC(=O)C(Cc2ccccc2)NC1=O (centres unmarked) [CY007345] | 5

# batch size: 2; output FP signal per entry
1. C=CC(C)(C)OC[C@H]1O[C@H](O[C@@H]2C3=C([C@H](C)COC(C)=O)C[C@H](O)[C@]3(C)/C=C3/[C@@H](COC)CC[C@H]3[C@@H](C)[C@H]2O)[C@H](O)[C@@H](OC(C)=O)[C@@H]1O [FC-A, fusicoccin A, reference compound]
2. N=C(N)NCCCC1NC(=O)C(CCC(N)=O)NC(=O)C(CCCNC(=N)N)NC(=O)C2CCCN2Cc2cccc(c2)-c2ccccc2CNC1=O (centres unmarked) [CY007455]

Reply:
[3, 5]

----------
- tested target: FITC-labeled CFTRpS753pS768 peptide (no 14-3-3) (Homo sapiens)
- Construct: made in house; host or cells: synthetic peptide
- procedure text: Dose-response FP control assay in the absence of 14-3-3
- Type: binding
- test settings: No 14-3-3; compound 3.90625e-6 M
value type: FP signal
Give bare numbers.

# batch size: 5; output FP signal per entry
1. NCCCC1NCc2ccccc2Sc2ccccc2CNC(=O)C(Cc2c[nH]c3ccccc23)NC(=O)C(Cc2ccccc2)NC1=O (stereo not drawn)
2. NCCCCC1NCc2ccccc2Sc2ccccc2CNC(=O)C(Cc2cccc(Cl)c2)NC(=O)C(Cc2ccc(O)cc2)NC1=O (stereo not drawn)
3. N=C(N)NCCCC1NC(=O)C(CCC(N)=O)NC(=O)C(CCCNC(=N)N)NC(=O)C2CCCN2Cc2cccc(c2)-c2ccccc2CNC1=O (stereo not drawn) [CY007455]
4. C=CC(C)(C)OC[C@H]1O[C@H](O[C@@H]2C3=C([C@H](C)COC(C)=O)C[C@H](O)[C@]3(C)/C=C3/[C@@H](COC)CC[C@H]3[C@@H](C)[C@H]2O)[C@H](O)[C@@H](OC(C)=O)[C@@H]1O [FC-A, fusicoccin A, reference compound]
5. N=C(N)NCCCC1NC(=O)C(CCC(N)=O)NC(=O)C(CCCNC(=N)N)NC(=O)C2CCCN2Cc2cccc(c2)-c2ccccc2CNC1=O (stereo not drawn) [CY007458]

Reply:
14
8
9
15
8

# batch size: 4; output FP signal per entry
1. N=C(N)NCCCC1NCc2ccccc2Sc2ccccc2CNC(=O)C(Cc2ccc(O)cc2)NC(=O)C(CCCN)NC1=O (stereo not drawn)
2. N=C(N)NCCCC1NC(=O)C(CCCCN)NCc2ccccc2Sc2ccccc2CNC(=O)C(Cc2ccc(O)cc2)NC1=O (stereo not drawn)
3. CN1CC(=O)NC(CCCNC(=N)N)C(=O)NC(CCC(N)=O)C(=O)NC(CCCNC(=N)N)C(=O)NCc2ccccc2-c2cccc(c2)C1 (stereo not drawn)
4. CC1NC(=O)C(CCCNC(=N)N)NC(=O)C2CCCN2Cc2cccc(c2)-c2ccccc2CNC(=O)C(CCCNC(=N)N)NC1=O (stereo not drawn)

Reply:
1: 12; 2: 6; 3: 7; 4: 6
